Numbers sourced from paper PMC4336329.

- tested.system: human ether-à-go-go-related gene (hERG) potassium channel (human, UniProt Q12809);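 further: peak tail current of the secondary pulse compared with the same well before compound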
- Sequence (Q12809 whole entry, looked up): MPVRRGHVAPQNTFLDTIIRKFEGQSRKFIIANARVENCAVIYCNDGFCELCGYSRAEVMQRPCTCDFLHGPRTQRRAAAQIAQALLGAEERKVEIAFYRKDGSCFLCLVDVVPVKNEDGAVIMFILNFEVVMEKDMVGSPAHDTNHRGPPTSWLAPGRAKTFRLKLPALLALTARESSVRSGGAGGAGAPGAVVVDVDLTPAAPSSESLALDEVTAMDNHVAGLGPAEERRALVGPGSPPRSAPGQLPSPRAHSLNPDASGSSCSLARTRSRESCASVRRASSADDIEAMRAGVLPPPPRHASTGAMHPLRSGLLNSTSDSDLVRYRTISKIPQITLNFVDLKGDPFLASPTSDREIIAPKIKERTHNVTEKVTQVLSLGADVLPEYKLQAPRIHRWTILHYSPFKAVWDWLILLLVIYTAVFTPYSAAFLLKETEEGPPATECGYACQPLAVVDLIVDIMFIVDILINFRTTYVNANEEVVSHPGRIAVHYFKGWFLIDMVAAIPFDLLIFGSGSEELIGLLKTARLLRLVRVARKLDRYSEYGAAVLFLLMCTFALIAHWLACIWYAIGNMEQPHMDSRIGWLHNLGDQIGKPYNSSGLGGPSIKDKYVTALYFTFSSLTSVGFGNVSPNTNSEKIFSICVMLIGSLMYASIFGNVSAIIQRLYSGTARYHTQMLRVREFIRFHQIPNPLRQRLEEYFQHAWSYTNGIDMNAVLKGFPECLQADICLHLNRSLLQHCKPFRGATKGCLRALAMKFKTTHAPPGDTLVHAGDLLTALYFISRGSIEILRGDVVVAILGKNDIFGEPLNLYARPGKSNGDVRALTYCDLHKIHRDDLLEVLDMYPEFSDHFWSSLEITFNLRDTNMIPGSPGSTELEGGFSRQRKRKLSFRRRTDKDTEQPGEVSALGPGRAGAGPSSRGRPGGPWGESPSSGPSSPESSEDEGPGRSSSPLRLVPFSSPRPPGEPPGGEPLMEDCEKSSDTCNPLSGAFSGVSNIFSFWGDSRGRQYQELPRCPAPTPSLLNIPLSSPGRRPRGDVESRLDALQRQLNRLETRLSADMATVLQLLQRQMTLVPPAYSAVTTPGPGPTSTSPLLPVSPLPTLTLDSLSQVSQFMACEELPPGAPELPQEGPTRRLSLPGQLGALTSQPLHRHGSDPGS
- test.description: primary screen, population patch clamp on CHO cells stably expressing hERG; higher = less effect of the substance
The campaign covered roughly 310,000 compounds. About 14,000 (4.5%) showed an effect of 50% or more. Effects have a minus sign here. The full list was thinned out, with strong results kept by preference.
outcome.measure: hERG current change (%, negative = inhibition) at 10uM (%)
Entry rule: numbers only, all in %.

Before answering, review these 6 worked examples.
Cc1ccccc1CN1CCc2cc([N+](=O)[O-])ccc21	19.1
COc1ccc2[nH]c3c(=O)n(CCc4ccccc4)cnc3c2c1	-6.62
COCCCn1c(=O)c2sccc2n2c(CCCC(=O)N3CCN(c4ccccn4)CC3)nnc12	-2.18
Cc1ccc(OCC(=O)NNC(=O)c2ccc(-n3cncn3)c([N+](=O)[O-])c2)cc1	-2.51
COc1ccc(N(C(=O)Cn2nnc3ccccc32)C(C(=O)NCc2ccco2)c2cccnc2)cc1 (stereo not drawn)	9.77
CC(C)OCCCn1c(=O)c2ccccc2n2c(CCC(=O)N3CCN(c4ccccn4)CC3)nnc12	-71.1

Given the compound `CN(C)CCCN1c2ccc([N+](=O)[O-])cc2CCc2cc([N+](=O)[O-])ccc21` , write its reported hERG current change (%, negative = inhibition) at 10uM. -50.3

Given the compound `CC(C)OCCCn1c(=O)c2ccccc2n2c(CCC(=O)O)nnc12` , write its reported hERG current change (%, negative = inhibition) at 10uM. 29.3

Given the compound `Cc1ccc(Cn2c(=O)c3ccccc3n3c(CCC(=O)O)nnc23)cc1` , write its reported hERG current change (%, negative = inhibition) at 10uM. 10.9

Given the compound `S=c1[nH]nc(-c2ccncc2)n1/N=C/C=C/c1ccccc1` , write its reported hERG current change (%, negative = inhibition) at 10uM. 8.71

Given the compound `COCCN(C(=O)c1ccccc1F)c1nc(-c2ccc(OC)cc2)cs1` , write its reported hERG current change (%, negative = inhibition) at 10uM. 16.7

Given the compound `CC(C)OCCCn1c(=O)c2ccccc2n2c(CCC(=O)NCc3ccccn3)nnc12` , write its reported hERG current change (%, negative = inhibition) at 10uM. -14.4

Given the compound `Cc1cccc(CSCCNC(=O)c2ccc(N(C)S(=O)(=O)c3ccccc3)cc2)c1` , write its reported hERG current change (%, negative = inhibition) at 10uM. -4.05

Given the compound `C=CCN1C(=O)c2ccc(C(=O)N(C)CC(=O)Nc3c(C)cccc3C)cc2C1=O` , write its reported hERG current change (%, negative = inhibition) at 10uM. 15.4

Given the compound `O/N=C1\CCCc2c1nc(-c1ccccc1F)n2O` , write its reported hERG current change (%, negative = inhibition) at 10uM. 26.1

Given the compound `Cc1cccc(C)c1NC(=O)CN(C)C(=O)c1ccc(-n2cncn2)c([N+](=O)[O-])c1` , write its reported hERG current change (%, negative = inhibition) at 10uM. -6.43

Given the compound `COc1ccc2[nH]c3c(=O)n(CCCN4CCOCC4)cnc3c2c1` , write its reported hERG current change (%, negative = inhibition) at 10uM. -3.86
